tested on: MV4-11; assay: CellTox Green cytotoxicity fluorescence relative to DMSO vehicle (fold of vehicle RFU); higher = more cell death (loss of membrane integrity), active = 2 or more; conditions: 1 µM; 48 h
Where a name gives a salt, the structure may show the parent alone.
Quantity: CellTox Green cytotoxicity fluorescence
Form rule: numeric answer, no unit written next to it.

QUERY: Give me measured CellTox Green cytotoxicity fluorescence, please, for this compound: COc1cc(C(=O)N2CCC(N3CCN(C)CC3)CC2)ccc1Nc1ncc2c(n1)N(C)c1ccccc1C(=O)N2C
RESULT: 1.29

QUERY: Give me measured CellTox Green cytotoxicity fluorescence, please, for this compound: Cc1cccc(CC(=O)N2CCc3c2ccc(-c2cn(C)c4ncnc(N)c24)c3F)n1
RESULT: 1.03

QUERY: Give me measured CellTox Green cytotoxicity fluorescence, please, for this compound: COc1c/c(=C2\C=c3ccccc3=N2)[nH]/c1=C\c1[nH]c(C)cc1C [Obatoclax Mesylate]
RESULT: 1.78

QUERY: Give me measured CellTox Green cytotoxicity fluorescence, please, for this compound: C=CC(=O)N1CCN(C(=O)CNc2cc(I)c(Cl)cc2O)CC1 [K-Ras(G12C) inhibitor 12]
RESULT: 0.996
